System: Stage 5 gametocytes from P. falciparum NF54
Assay: Late-stage (stage V) gametocyte survival assay, MitoTracker
Type: cell-based, Plasmodium falciparum
Settings: gametocyte EC50 / 3D7 EC50
ATTRIBUTE MEASURED: EC50 fold shift compared to asexual stage: Stage 5 Gametocyte EC50

>>> df
                                   compound  assay_value
0  OC(CNC1CCCCC1)Cn1c2ccccc2c2ccccc21 (stereo not drawn) [MMV009063]        > 1.5
1  COc1cc(-c2nc(-c3ccccc3)c(-c3ccccc3)[nH]2)cc(OC)c1O [MMV020750]        > 3.6
2  CCC(C)NCC(O)(c1ccc(Cl)cc1)c1ccc(Cl)cc1 (stereo not drawn) [MMV665928]        > 2.5
3  CC(NCc1ccccc1)c1cc(Cl)ccc1O (stereo not drawn) [MMV665789]          > 1
4  COc1ccc(C(=O)C2CC2c2ccc(Cl)cc2)cc1 (stereo not drawn) [MMV665924]        > 1.5
5  CCCN(CCC)CC(O)COc1ccccc1C(=O)Nc1ccccc1 (stereo not drawn) [MMV006455]        > 2.3
